Every entry's value here was drawn from the Immune Epitope Database (IEDB).

target: HLA-A*02:02; test: IEDB peptide-MHC binding, purified MHC/competitive/radioactivity; filed as Kd, often an IC50 or EC50 that approximates it; bounds were set here for any values at or beyond the usual limits of such assays; conditions: source organism: Vaccinia virus Copenhagen
observed.property: pKd
Give bare numbers, as −log10 of the molar value.

In: Item ILSCIFAFI has what recorded pKd?
Out: 9.10

* * *

target: HLA-C*05:01; test: IEDB peptide-MHC binding, purified MHC/direct/fluorescence; filed as Kd, often an IC50 or EC50 that approximates it; bounds were set here for any values at or beyond the usual limits of such assays; settings: source organism: Vibrio vulnificus YJ016
observed.property: Kd

In: Item MSDWGHITV has what recorded Kd?
Out: ≤ 1 nM

* * *

molecular target: HLA-B*58:01; test: IEDB peptide-MHC binding, purified MHC/competitive/fluorescence; filed as Kd, often an IC50 or EC50 that approximates it; bounds were set here for any values at or beyond the usual limits of such assays; details: source organism: Zaire ebolavirus
observed.property: Kd (nM)
One number for each entry, in nM.

In: Item KTNDFAPAW has what recorded Kd?
Out: 1.3

* * *

target: HLA-B*58:01; assay: IEDB peptide-MHC binding, purified MHC/direct/fluorescence; filed as Kd, often an IC50 or EC50 that approximates it; bounds were set here for any values at or beyond the usual limits of such assays; settings: source organism: Coxiella burnetii
observed.property: Kd

In: Item SYGNANVSF has what recorded Kd?
Out: ≥ 20 µM

* * *

biological target: HLA-A*24:02; assay: IEDB peptide-MHC binding, purified MHC/competitive/radioactivity; filed as Kd, often an IC50 or EC50 that approximates it; bounds were set here for any values at or beyond the usual limits of such assays; details: source organism: Dengue virus 2 Jamaica/1409/1983
observed.property: Kd (nM)
One number for each entry, in nM.

{"columns": ["seq.text", "observed.property", "unit", "reported.value"],
 "data": [
  ["LFKTNTGTI", "Kd", "nM", 1280]
]}

Now for a further sequence.
In: Item WYMWLGARF has what recorded Kd?
Out: 16.2

* * *

molecular target: HLA-C*05:01; assay: IEDB peptide-MHC binding, purified MHC/direct/fluorescence; filed as Kd, often an IC50 or EC50 that approximates it; bounds were set here for any values at or beyond the usual limits of such assays; settings: source organism: Campylobacter jejuni subsp. jejuni NCTC 11168 = ATCC 700819
observed.property: pKd
Numbers only, as −log10 of the molar value.

In: Item LLDEPTNHL has what recorded pKd?
Out: 8.10

* * *

molecular target: HLA-A*31:01; assay: IEDB peptide-MHC binding, purified MHC/competitive/radioactivity; filed as Kd, often an IC50 or EC50 that approximates it; bounds were set here for any values at or beyond the usual limits of such assays; settings: source organism: Lymphocytic choriomeningitis virus (strain Traub)
observed.property: pKd
Give bare numbers, as −log10 of the molar value.

In: Item KCHDHYLCR has what recorded pKd?
Out: 6.96

* * *

molecular target: HLA-B*40:01; test: IEDB peptide-MHC binding, purified MHC/competitive/fluorescence; filed as Kd, often an IC50 or EC50 that approximates it; bounds were set here for any values at or beyond the usual limits of such assays; conditions: source organism: Escherichia coli B7A
observed.property: pKd
One number for each entry, as −log10 of the molar value.

In: Item GEHVPEIIL has what recorded pKd?
Out: 8.77
